molecular target: human CB1 receptors (Homo sapiens, UniProt P21554); construct: expressed in transfected cells; host or cells: CHO cells; experiment: cAMP assay; assay type: cell-based
Sequence (P21554 whole entry): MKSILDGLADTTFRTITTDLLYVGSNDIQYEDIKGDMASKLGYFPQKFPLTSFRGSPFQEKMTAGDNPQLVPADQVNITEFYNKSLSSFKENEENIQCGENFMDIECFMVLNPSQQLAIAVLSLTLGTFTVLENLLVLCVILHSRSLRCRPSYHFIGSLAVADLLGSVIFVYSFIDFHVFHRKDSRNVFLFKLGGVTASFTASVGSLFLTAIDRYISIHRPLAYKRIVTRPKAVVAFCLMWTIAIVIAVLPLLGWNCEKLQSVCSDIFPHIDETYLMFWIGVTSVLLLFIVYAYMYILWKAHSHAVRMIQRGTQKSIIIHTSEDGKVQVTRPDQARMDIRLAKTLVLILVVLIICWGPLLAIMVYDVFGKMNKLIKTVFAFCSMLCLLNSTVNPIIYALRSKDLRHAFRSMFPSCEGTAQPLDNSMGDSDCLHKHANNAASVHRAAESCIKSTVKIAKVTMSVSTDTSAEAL
measured metric: EC50

Query block: Lab note: need EC50 with human CB1 receptors (Homo sapiens, UniProt P21554) for entry C[C@@H](c1ccccc1Cl)n1nc2nc(C(C)(C)C)nc(N3CCC(F)(F)C3)c2n1 , please look it up.
Result block: 0.098 µM

Query block: Lab note: need EC50 with human CB1 receptors (Homo sapiens, UniProt P21554) for entry Cc1nnc(Cn2nc3nc(C(C)(C)C)nc(N4CC5(COC5)C4)c3n2)n1C , please look it up.
Result block: > 10 µM

Query block: Lab note: need EC50 with human CB1 receptors (Homo sapiens, UniProt P21554) for entry Cc1nnc(Cn2nc3nc(C(C)(C)C)nc(N4CCC(F)(F)C4)c3n2)o1 , please look it up.
Result block: > 10 µM

====

target: human CB2 receptors (Homo sapiens, UniProt P34972); construct: expressed in transfected cells; host or cells: CHO cells; experiment: cAMP assay; format: cell-based; details: functional cAMP assay, CHO cells expressing human CB2; read-out: human CB2 EC50
Sequence (P34972 whole entry): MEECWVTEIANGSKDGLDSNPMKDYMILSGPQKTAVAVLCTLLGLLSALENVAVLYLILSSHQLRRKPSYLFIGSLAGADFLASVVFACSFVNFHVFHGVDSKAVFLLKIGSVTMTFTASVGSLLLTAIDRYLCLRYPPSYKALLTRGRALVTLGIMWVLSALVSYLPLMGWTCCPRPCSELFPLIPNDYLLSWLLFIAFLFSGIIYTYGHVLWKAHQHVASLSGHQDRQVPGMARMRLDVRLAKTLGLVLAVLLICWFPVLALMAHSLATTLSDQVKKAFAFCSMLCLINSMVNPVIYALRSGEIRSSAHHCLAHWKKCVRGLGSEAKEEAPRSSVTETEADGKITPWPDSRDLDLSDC
Please go through the items and note down their EC50.
Kindly write the number and append the unit.

Query block: Quick one: EC50 for CC(=O)N[C@H]1CCN(c2nc(O[C@@H](C)C(F)(F)F)nc3nn(Cc4ccccc4S(C)(=O)=O)nc23)C1 ?
Result block: 1730 nM

Query block: Quick one: EC50 for Cc1noc(Cn2nc3nc(C(C)(C)C)nc(N4CC[C@@](C)(O)C4)c3n2)n1 ?
Result block: 316 nM

Query block: Quick one: EC50 for Cc1noc(Cn2nc3nc(C(C)(C)C)nc(N4CC[C@](C)(O)C4)c3n2)n1 ?
Result block: 197 nM

====

biological target: human CB1 receptors (Homo sapiens); construct: expressed in transfected cells; host or cells: CHO cells; assay: cAMP assay; type: cell-based
pEC50: −log10 of the molar value.
Please go through the items and note down their pEC50.

Query block: Lab note: need pEC50 with human CB1 receptors (Homo sapiens) for entry CC(C)(C)Nc1nc(N2CCC(F)(F)C2)c2nn(Cc3ncccc3Cl)nc2n1 , please look it up.
Result block: < 5.00

Query block: Lab note: need pEC50 with human CB1 receptors (Homo sapiens) for entry CC(C)(C)c1nc(N2CCC(F)(F)C2)c2nn(Cc3c(F)cccc3Cl)nc2n1 , please look it up.
Result block: 7.19

Query block: Lab note: need pEC50 with human CB1 receptors (Homo sapiens) for entry Cc1noc(Cn2nc3nc(C(C)(C)C)nc(N4CC(F)(F)C(F)(F)C4)c3n2)n1 , please look it up.
Result block: < 5.00

Query block: Lab note: need pEC50 with human CB1 receptors (Homo sapiens) for entry Cn1nnnc1Cn1nc2nc(NC(C)(C)C)nc(N3CCC(F)(F)C3)c2n1 , please look it up.
Result block: < 5.00

Query block: Lab note: need pEC50 with human CB1 receptors (Homo sapiens) for entry CC(C)(C)c1nc(N2CCC(F)(F)C2)c2nn(Cc3ccc(Cl)cc3)nc2n1 , please look it up.
Result block: < 5.00

Query block: Lab note: need pEC50 with human CB1 receptors (Homo sapiens) for entry Cn1nnnc1Cn1nc2nc(C(C)(C)C)nc(N3CCC(O)C3)c2n1 (centres unmarked) , please look it up.
Result block: < 5.00

Query block: Lab note: need pEC50 with human CB1 receptors (Homo sapiens) for entry CC(C)(C)c1nc(N2CC[C@H](O)C2)c2nn(Cc3nc(Cl)ccc3Cl)nc2n1 , please look it up.
Result block: < 5.00

Query block: Lab note: need pEC50 with human CB1 receptors (Homo sapiens) for entry CC(C)(C)c1nc(N2CCC(F)(F)C2)c2nn(CCc3ccc(Cl)cc3)nc2n1 , please look it up.
Result block: < 5.00

Query block: Lab note: need pEC50 with human CB1 receptors (Homo sapiens) for entry CC(C)(C)c1nc(N2CCC(F)(F)C2)c2nn(Cc3c(Cl)ccnc3Cl)nc2n1 , please look it up.
Result block: 6.34

Query block: Lab note: need pEC50 with human CB1 receptors (Homo sapiens) for entry Cc1nc(Cn2nc3nc(C(C)(C)C)nc(N4CC[C@H](O)C4)c3n2)n(C)n1 , please look it up.
Result block: < 5.00

Query block: Lab note: need pEC50 with human CB1 receptors (Homo sapiens) for entry CC(C)(C)c1nc(N2CCC(F)(F)C2)c2nn(CCO)nc2n1 , please look it up.
Result block: < 5.00

Query block: Lab note: need pEC50 with human CB1 receptors (Homo sapiens) for entry CC(C)(C)c1nc(N2CC3(COC3)C2)c2nn(Cc3ncccc3Cl)nc2n1 , please look it up.
Result block: 6.44

Query block: Lab note: need pEC50 with human CB1 receptors (Homo sapiens) for entry CC(C)(C)c1nc(N2CCC(F)(F)C2)c2nn(Cc3ccccc3OC(F)(F)F)nc2n1 , please look it up.
Result block: < 5.00

Query block: Lab note: need pEC50 with human CB1 receptors (Homo sapiens) for entry CC(C)(C)c1nc(N2CCC(F)(F)C2)c2nn(CCc3cccnc3)nc2n1 , please look it up.
Result block: < 5.00

Query block: Lab note: need pEC50 with human CB1 receptors (Homo sapiens) for entry CC(=O)N[C@H]1CCN(c2nc(O[C@@H](C)C(F)(F)F)nc3nn(Cc4ccccc4Cl)nc23)C1 , please look it up.
Result block: < 5.00

Query block: Lab note: need pEC50 with human CB1 receptors (Homo sapiens) for entry CC(C)(C)c1nc(N2CCC(F)(F)C2)c2nn(Cc3ccccn3)nc2n1 , please look it up.
Result block: 6.68

Query block: Lab note: need pEC50 with human CB1 receptors (Homo sapiens) for entry CC(C)(C)c1nc(N2CCC(F)(F)C2)c2nn(Cc3c(F)ccc(F)c3Cl)nc2n1 , please look it up.
Result block: 7.47

Query block: Lab note: need pEC50 with human CB1 receptors (Homo sapiens) for entry CC(C)(C)c1nc(N2CCC(F)(F)C2)c2nn(C3CCS(=O)(=O)C3)nc2n1 (centres unmarked) , please look it up.
Result block: < 5.00

Query block: Lab note: need pEC50 with human CB1 receptors (Homo sapiens) for entry Cc1nonc1Cn1nc2nc(C(C)(C)C)nc(N3CCC(F)(F)C3)c2n1 , please look it up.
Result block: < 5.00

Query block: Lab note: need pEC50 with human CB1 receptors (Homo sapiens) for entry CC(C)(C)c1nc(N2CCOCC2)c2nn(Cc3ccc(F)cc3Cl)nc2n1 , please look it up.
Result block: < 5.00

Query block: Lab note: need pEC50 with human CB1 receptors (Homo sapiens) for entry CC(C)(C)c1nc(N2CCC(F)(F)C2)c2nn(CCc3ccccc3)nc2n1 , please look it up.
Result block: 6.41

Query block: Lab note: need pEC50 with human CB1 receptors (Homo sapiens) for entry CC(C)(C)c1nc(N2CCC(F)(F)C2)c2nn(Cc3cccc(Cl)c3Cl)nc2n1 , please look it up.
Result block: < 5.00

Query block: Lab note: need pEC50 with human CB1 receptors (Homo sapiens) for entry CC(C)(C)c1nc(N2CC[C@](C)(O)C2)c2nn(Cc3ccccc3S(C)(=O)=O)nc2n1 , please look it up.
Result block: < 5.00

Query block: Lab note: need pEC50 with human CB1 receptors (Homo sapiens) for entry CC(C)(C)c1nc(N2CCC(F)(F)C2)c2nn(CCc3ccccc3Cl)nc2n1 , please look it up.
Result block: 6.30

Query block: Lab note: need pEC50 with human CB1 receptors (Homo sapiens) for entry CC(C)(C)c1nc(N2CCC(F)(F)C2)c2nn(CC(=O)c3cccnc3)nc2n1 , please look it up.
Result block: < 5.00

Query block: Lab note: need pEC50 with human CB1 receptors (Homo sapiens) for entry CC(C)(C)c1nc(N2CCC(F)(F)C2)c2nn(CCc3ccccn3)nc2n1 , please look it up.
Result block: < 5.00
